# Tested on: full length human vWF (SEQ ID NO 7)
# Protocol Text: dot blot KD determination and extent of binding, full length human vWF
# Assay Setup: Phase 1 modification; full length human vWF, dot blot, 8 point protein titration; read-out: KD
Oligonucleotides are written 5' to 3', each unit as a sugar letter and its base; * is a phosphorothioate linkage, no mark a phosphodiester; rarer units and linkages stand in square brackets, end groups in braces. Plain capitals give the bases only. [invdT] = inverted (3'-3') thymidine; d = 2'-deoxy (DNA); m = 2'-O-methyl
Endpoint Name: pKd
Numbers only, as −log10 of the molar value.

ARC1232: ARC1172 with one residue replaced by 2'-O methyl residue (dGdGdCdGdTdGdCdAdGdTdGdCdCdTdTdCdGdGdCdCdGdTdGdCdGdGdTdGdCdCdTdCdCdGdTdCdAdCmGdCdC[invdT]; aptamer) :: 9.00
ARC1222: ARC1172 with one residue replaced by 2'-O methyl residue (dGdGdCdGdTdGdCdAdGdTdGdCdCdTdTdCdGdGdCdCdGdTdGdCdGdGdTdGmCdCdTdCdCdGdTdCdAdCdGdCdC[invdT]; aptamer) :: 9.05

Quick one: give me pKd for each item below, same order please.
1. dGdGdCdGTdGdCdAdGTdGdCdCTTdCdGdGdCdCdGTdGdCdGdGTdGdCdCTdCdCdGTdCdAdCdGdCdC-3T (DNA GGCGTGCAGTGCCTTCGGCCGTGCGGTGCCTCCGTCACGCC; DNA, [invdT] at 3' end, backbone and methylation of C not given here) [ARC1172, ARC1115 with 3'-inverted dT]
2. ARC1225: ARC1172 with one residue replaced by 2'-O methyl residue (dGdGdCdGdTdGdCdAdGdTdGdCdCdTdTdCdGdGdCdCdGdTdGdCdGdGdTdGdCdCdTmCdCdGdTdCdAdCdGdCdC[invdT]; aptamer)

Result ::
[8.70, 7.96]

----------
# Test system: full length human vWF (SEQ ID NO 7)
# Protocol Text: dot blot KD determination and extent of binding, full length human vWF;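 note: dot blot binding of aptamers to full length human vWF across a protein titration, incubated 30 minutes at room temperature in 1x DPBS with BSA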
# Assay Setup: Phase 2 modification; extent of aptamer binding at 100 nM full length human vWF
Oligonucleotides are written 5' to 3', each unit as a sugar letter and its base; * is a phosphorothioate linkage, no mark a phosphodiester; rarer units and linkages stand in square brackets, end groups in braces. Plain capitals give the bases only. [invdT] = inverted (3'-3') thymidine; d = 2'-deoxy (DNA); m = 2'-O-methyl
For each record, write down the corresponding % binding @ 100 nM vWF.
Numbers only, in %.

Worked set:
mGmGmCmGmUdGdCdAdGTdGdCdCTTdCdGdGdCdCdGTdGdCdGdGTdGdCdCTdCdCdGTdCmAmCmGmCmC-3T (mGmGmCmGmUdGdCdAdGdTdGdCdCdTdTdCdGdGdCdCdGdTdGdCdGdGdTdGdCdCdTdCdCdGdTdCmAmCmGmCmC[invdT]; aptamer) [ARC1338] :: 21
mGmGmCmGmUdG-s-dCdAmGmUmGmCmCmUmUmCmGmGmC-s-dCmGTmGdCdG-s-dGTmGmCdCmUdC-s-dCmGmUmCmAmCmGmCmC-3T (mGmGmCmGmUdG*dCdAmGmUmGmCmCmUmUmCmGmGmC*dCmGdTmGdCdG*dGdTmGmCdCmUdC*dCmGmUmCmAmCmGmCmC[invdT]) [ARC1343] :: 21

Query :: So what does the record say about % binding @ 100 nM vWF for mGmCmGmUdGdCdAmGmUmGmCmCmUmUmCmGmGmCdCmGTmGdCdGdGTmGmCdCmUdCdCmGmUmCmAmCmGmC-3T (GCGUGCAGUGCCUUCGGCCGTGCGGTGCCUCCGUCACGC; sugars from the 5' end mmmmdddmmmmmmmmmmmdmdmddddmmdmddmmmmmmm, [invdT] at 3' end, backbone and methylation of C not given here) [ARC1346] ?
Result :: 51
